Measured normalized growth of individual entries
- measurementDescription: chemical genetic growth profiling, strain panel (AID 1159580);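 further: tested at 20 µM; growth read once vehicle control cultures reached saturation at 30 °C; 1 = growth at the plate median or of vehicle wells; lower values mean less growth of the strain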
- runParameters: S. cerevisiae deletion strains, growth OD, locus YNL248C, strain rpa49, active compounds read low
The whole screen tested about 5,500 compounds, of which about 2,000 (36%) were called active. Roughly 18% stayed inconclusive and do not appear here. This is one part of the list.
Respond with the number and no other words.

CC(C)c1c(O)ccc2c1CCC1[C@@](C)(C=O)CCC[C@]21C (stereo partly specified) has a reported normalized growth of 1.04

// normalized growth lookup, compound = CC(C)c1c(O)ccc2c1CCC1[C@@](C)(CO)CCC[C@]21C (stereo partly specified) , result: 1.04

Given item COc1ccc2c(c1)CCC1C2CCC2(C)C1C[C@@H](O)C2O (stereo partly specified) , the value recorded as its normalized growth is 0.979

====

- measurementDescription: chemical genetic growth profiling, strain panel (AID 1159580);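 further: tested at 20 µM; growth read once vehicle control cultures reached saturation at 30 °C; 1 = growth at the plate median or of vehicle wells; lower values mean less growth of the strain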
- runParameters: S. cerevisiae deletion strains, growth OD, locus YGR052W, strain FMP48
The whole screen tested about 5,500 compounds, of which about 2,000 (36%) were called active. Another 18% or so got no clear call; they are omitted. No stated cut-off is given here; in the data, active means normalized growth mostly below about 0.91 (no sharp cut-off); inconclusive means no clear call, values can overlap the other calls; inactive means mostly above about 0.92. Some of the results follow.
Return exactly one item of 1 (active), 0 (inactive)

Answered examples (10):
O=[N+]([O-])c1cc(Cl)cc([N+](=O)[O-])c1Nc1ccccc1: 0
Cc1ccc(NNC(=O)c2cccs2)cc1Cl: 0
FC(F)(F)c1ccc(N2CCc3ccccc3C2)c(NC(=S)Nc2cc(Cl)cc(Cl)c2)c1: 0
CC(C)(C)NC(=S)N/N=C\c1ccccc1O: 0
Oc1c(Cl)cc(Cl)cc1C=Nc1ccc(Sc2ccccc2)nc1Sc1ccccc1: 0
O=C1Nc2ccccc2/C1=C\c1c(Cl)cccc1Cl: 0
COc1ccc(/C=C2/C(=O)Nc3ccccc32)cc1: 0
CCCCNC(=S)N/N=C\c1cc(Cl)cc(Cl)c1O: 1
Oc1c(Br)cc(Br)cc1C=Nc1ccccn1: 1
COc1cc(Br)cc(C=Nc2ccc(Sc3ccccc3)nc2Sc2ccccc2)c1O: 0

Tell me the recorded outcome of this test for O=C1Nc2ccccc2/C1=C/c1ccc(Oc2ccccc2)nc1 .
0

Entry OC(COc1ccc(F)cc1)(c1ccccc1)c1ccccc1 : call = ?
0

Called result for Cc1cc(Oc2ccc(C(F)(F)F)cc2NS(C)(=O)=O)cc(C)c1Cl
0

====

- measurementDescription: chemical genetic growth profiling, strain panel (AID 1159580);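 further: tested at 20 µM; growth read once vehicle control cultures reached saturation at 30 °C; 1 = growth at the plate median or of vehicle wells; lower values mean less growth of the strain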
- runParameters: S. cerevisiae deletion strains, growth OD, locus YLR039C, strain RIC1, active compounds read low
Among all 5,500 compounds or so, about 2,000 (36%) were called active. About 18% were inconclusive and are not listed. The list shows a part of the results.
readoutKind: normalized growth
The reply should be a number, written without any unit.

Take a look at these entries with their results.
O=C(Cc1cccs1)NC1C(=O)N2C(C(=O)[O-])=C(C[n+]3ccccc3)CSC12 (configuration not stated): 1.01
Cn1[nH]c(=O)cc1C(=O)NN: 0.998
COCCCNC(=S)N/N=C\c1cccc(OC)c1O: 1.11
NC(CSCSCC(N)C(=O)O)C(=O)O (configuration not stated): 1.1
CC(C)CC1NC(=O)NC1=O (configuration not stated): 1

Input O=C(O[C@@H]1Cc2c(O)cc(O)cc2O[C@@H]1c1cc(O)c(=O)c2c(O)c(O)cc([C@H]3Oc4cc(O)cc(O)c4C[C@H]3OC(=O)c3cc(O)c(O)c(O)c3)c2c1)c1cc(O)c(O)c(O)c1 . Output normalized growth: 0.598

Consider C=C1SC(Nc2cccc(C(F)(F)F)c2)=NC12CCCCC2 . Its measured normalized growth is 0.958
